- protocol_notes: hepatocyte lipid droplet accumulation inhibitors, confirmation, imaging, AML12 mouse hepatocytes, single concentration, high-content (AID 463183);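 as to cell count: cells counted after overnight compound exposure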
- cond: BODIPY lipid droplet imaging, at 5.2 µM, droplets induced with 100 µM oleic acid; measured here: cell count, cytotoxicity
The list shows a part of the results.
Kindly supply the reported cell count values for the records listed here.
Output spec: scalar in cells, unitless text.

Give a short answer stating reported cell count for `O=C(CN1CCc2cc3c(cc2C1)OCCCO3)Nc1ccccc1` .
1530

Note down cell count recorded for `Cn1c(=O)[nH]c(=O)c2c1nc(N1CCN(C(c3ccccc3)c3ccccc3)CC1)n2CCO`
1570

Give the value of cell count reported for the following: `CCOc1ccc(CCNC(=O)CCc2nnc3ccc(N4CCCC4)nn23)cc1OCC`
1650

Give reported cell count value for `CCCc1ccc(-c2csc(NC(=O)Cc3cccs3)n2)cc1`
1560

Tell me cell count reported for Cc1cc(C(=O)NC2CCCc3c2cnn3-c2cccc(C)c2C)c(C)o1 (stereo not drawn)
1560

Report cell count, nothing else, for this compound: `CCCCN1C(=O)/C(=C/C=C2/C=Cc3ccccc3N2CC)SC1=S`
1580

// fetch cell count given entry Cc1ccc(N2C(=O)C(NC(=O)c3c(F)cccc3F)(C(F)(F)F)C3=C2CC(C)(C)CC3=O)cc1 (stereo not drawn)
1590

Hello, please tell me recorded cell count for this one: `COc1cc(/C=N/NC(=O)Nc2ccccc2)ccc1OCCOc1ccccc1C`
1640

Write down cell count measured for item `COCCCNC(=O)CN1C(=O)CSc2ccc(S(=O)(=O)N3CCOCC3)cc21`
1530

State, in one line, measured cell count of `CCCN(CCC)c1nc2c(C)cccn2c(=O)c1/C=C1/SC(=S)N(Cc2ccco2)C1=O`
1560

Give the measured cell count for CCOC(=O)C1=C(CC)OC(N)=C(C#N)C1c1ccc(F)cc1F (stereo not drawn)
1680

Report cell count for CCc1ccc(NC(=O)C(C)OC(=O)/C=C/c2cccc([N+](=O)[O-])c2)cc1 (stereo not drawn)
1510

Entry `COc1cccc(/C=C(/CC(=O)Nc2ccc(N3CCOCC3)cc2)c2nc3ccccc3s2)c1` needs its cell count filled in; supply it.
1580

Give recorded cell count. `CCOc1ccc(CCNC(=O)Nc2ccccc2)cc1OCC`
1550

Note down cell count recorded for CC(NC(=O)c1cccc2ccccc12)c1ccc2c(c1)CCCC2 (stereo not drawn)
1640

Fill in cell count for record `O=C1Nc2ccc(Br)cc2/C1=N/N=C/C1=C(N2CCOCC2)C(=C\c2ccccc2)/CC1`
1660

Answer with reported cell count of `CN(C)c1ccc(Nc2c3c4c(cccc4n(C)c2=O)C(=O)c2ccccc2-3)cc1`
1580

State its cell count for this compound: CCCN(CCC)c1ccc(C(O)c2nnc(-c3ccccc3)o2)cc1 (stereo not drawn)
1610

====

- protocol_notes: hepatocyte lipid droplet accumulation inhibitors, confirmation, imaging, AML12 mouse hepatocytes, single concentration, high-content (AID 463183);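 as to inhibition: plate controls were DMSO with oleic acid for no effect and 5 µM Triacsin-C for full effect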
- cond: BODIPY lipid droplet imaging, at 5.2 µM, droplets induced with 100 µM oleic acid; stronger effect = higher value
The list shows a part of the results.
Note that class boundaries on inhibition are lower segment: < 20%; middle segment: ≥ 20% and < 90%; upper segment: ≥ 90%

Returns: class label. Input: `O=C(CN1CCc2cc3c(cc2C1)OCCCO3)Nc1ccccc1`
lower segment

# bin lookup: classify `O=C1Nc2ccc(Br)cc2/C1=N/N=C/C1=C(N2CCOCC2)C(=C\c2ccccc2)/CC1` by its inhibition
middle segment

Bin this entry: CCCN(CCC)c1ccc(C(O)c2nnc(-c3ccccc3)o2)cc1 (configuration not stated)
upper segment

Entry `COc1cccc(/C=C(/CC(=O)Nc2ccc(N3CCOCC3)cc2)c2nc3ccccc3s2)c1` belongs to which category?
upper segment

Where would `CC(C)(C)NC(=O)Cn1cnc2cc([N+](=O)[O-])ccc2c1=O` land among the classes by reported inhibition?
middle segment

Category of `CCCc1ccc(-c2csc(NC(=O)Cc3cccs3)n2)cc1` , please.
upper segment

Which class holds CC(NC(=O)c1cccc2ccccc12)c1ccc2c(c1)CCCC2 (configuration not stated) ?
upper segment

Into which bin does this compound go? Cc1cc(C(=O)NC2CCCc3c2cnn3-c2cccc(C)c2C)c(C)o1 (configuration not stated)
middle segment

Record CCOC(=O)C1=C(CC)OC(N)=C(C#N)C1c1ccc(F)cc1F (configuration not stated) — which class?
lower segment

Entry `COCCCNC(=O)CN1C(=O)CSc2ccc(S(=O)(=O)N3CCOCC3)cc21` belongs to which category?
lower segment

State the band of `O=[N+]([O-])c1ccccc1N/N=C1\CCc2ccccc21`
middle segment

Each recorded value in this set is attributed to PubChem BioAssay AID463183.
